Origin of values: patent EP4786492A1

Consider the following binders; for each one, report its MFI.
# assayed system: DLL3 endogenously expressed on NCI-H82 cells (UniProt Q9NYJ7)
# Sequence (Q9NYJ7 27-618): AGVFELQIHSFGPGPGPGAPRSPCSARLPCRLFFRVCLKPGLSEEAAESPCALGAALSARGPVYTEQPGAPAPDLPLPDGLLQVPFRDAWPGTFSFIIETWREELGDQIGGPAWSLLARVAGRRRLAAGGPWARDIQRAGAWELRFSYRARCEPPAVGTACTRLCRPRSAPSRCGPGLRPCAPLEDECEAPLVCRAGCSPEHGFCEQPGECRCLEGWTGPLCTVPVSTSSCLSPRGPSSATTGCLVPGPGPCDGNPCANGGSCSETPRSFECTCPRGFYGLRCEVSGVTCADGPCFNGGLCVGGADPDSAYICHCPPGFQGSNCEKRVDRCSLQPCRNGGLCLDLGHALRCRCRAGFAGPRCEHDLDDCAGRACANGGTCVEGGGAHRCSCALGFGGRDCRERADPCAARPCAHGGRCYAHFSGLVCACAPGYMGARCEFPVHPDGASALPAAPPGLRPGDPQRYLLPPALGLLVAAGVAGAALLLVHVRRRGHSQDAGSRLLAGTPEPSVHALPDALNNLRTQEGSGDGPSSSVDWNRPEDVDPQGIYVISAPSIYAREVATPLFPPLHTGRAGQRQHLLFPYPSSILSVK
# experimental protocol: FACS on NCI-H82 cells; antibody 0.00128 nM
Please state the value as a number alone, without comment.

Form field MFI, entry mab015 scFv-hFc (Fc fusion, part only; not given: linker and human IgG1 Fc, not shown: a dimerising Fc or GST) chain, part: NIVMTQSPKSMSMSVGERVTLSCKASENVGTYVSWFQQKPEQSPKLLIYGASNRYTGVPDRFTGSGSATDFTLTISSVQAEDLADYHCGQFYSFPCTFGGGTKLEIKEVKLEESGGGLVQPGGSMKLSCVASGITFSNFWMNWVRQSPEKGLEWVAQIRLKSDDYATHYAESVKGRFTISRDDSKGSVYLQMNNLRTEDTGIHYCTTGYYFDYWGQGTTLTVSS : 113

Form field MFI, entry Hab015VL5VH5a-hFc (scFv, part only; not given: scFv linker and human IgG1 Fc, V domains shown, not shown: another chain or arm of the molecule; a dimerising Fc or GST; small tags and cut ends) VL: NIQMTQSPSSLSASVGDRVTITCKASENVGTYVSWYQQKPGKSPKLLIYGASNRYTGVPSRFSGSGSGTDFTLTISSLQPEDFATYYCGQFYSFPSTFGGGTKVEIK VH: EVQLVESGGGLVKPGGSLRLSCVASGITFSNFWMNWVRQAPGKGLEWVGQIRLKSDDYATHYAESVKGRFTISREDSKNTVYLQMNSLKTEDTAVYYCTTGYYFDYWGQGTTVTVSS : 122

Form field MFI, entry Hab008L3H2a-hFc (scFv, part only; not given: VL-VH linker and human IgG1 Fc, V domains shown, not shown: another chain or arm of the molecule; a dimerising Fc or GST; small tags and cut ends) VL: DIVMTQSPDSLAVSLGERATINCKASQNVGTAVAWYQQKPGQSPKLLIFSASIRYTGVPDRFSGSGSGTDFTLTISSLQAEDVAVYYCQQYSSSPYTFGGGTKVEIK VH: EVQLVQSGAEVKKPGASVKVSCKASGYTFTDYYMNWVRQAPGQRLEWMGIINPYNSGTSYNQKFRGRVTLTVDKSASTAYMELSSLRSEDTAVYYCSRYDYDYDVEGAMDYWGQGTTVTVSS : 85

Form field MFI, entry Hab006VL4VH1-hFc (scFv, part only; not given: scFv linker and human IgG1 Fc, V domains shown, not shown: another chain or arm of the molecule; a dimerising Fc or GST; small tags and cut ends) VL: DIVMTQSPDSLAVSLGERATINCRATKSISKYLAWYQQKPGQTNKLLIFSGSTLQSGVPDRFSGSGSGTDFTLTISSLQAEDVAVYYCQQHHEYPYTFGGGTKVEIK VH: EVQLVQSGAEVKKPGASVKVSCKASGYTFTSYWMHWVRQAPGQRLEWMGVIDPSDSLANYNQEFKGRVTITVDTSASTAYMELSSLRSEDTAVYYCARDSTVVAPMDYWGQGTTVTVSS : 123

Form field MFI, entry mab006 scFv-hFc (Fc fusion, part only; not given: linker and human IgG1 Fc, not shown: a dimerising Fc or GST) chain, part: DVQITQSPSYLAASPGETITINCRATKSISKYLAWYQEKPGKTNKLLIFSGSTLQSGIPSRFRGSGSGTDFTLTISSLEPEDFAMYYCQQHHEYPYTFGGGTKLEIKQVQLQQPGAELVRPGTSVKLSCKASGYTFTSYWMHWVRQRPGQGLEWIGVIDPSDSLANYNQEFKGKATLTVDTSSSTAYMQLSSLTSEDSAVYYCARDSTVVAPMDYWGQGTSVTVSS : 123
